Measured Target: CPB2.8ΔCTE (Leishmania mexicana)
Construct: Wild-type recombinant CPB without the C-terminal extention (i.e. CPB2.8ΔCTE); Dr. Jeremy Mottram (Wellcome Centre for Molecular Parasitology, University of Glasgow)
Sequence (P36400 126-343, stated change not applied): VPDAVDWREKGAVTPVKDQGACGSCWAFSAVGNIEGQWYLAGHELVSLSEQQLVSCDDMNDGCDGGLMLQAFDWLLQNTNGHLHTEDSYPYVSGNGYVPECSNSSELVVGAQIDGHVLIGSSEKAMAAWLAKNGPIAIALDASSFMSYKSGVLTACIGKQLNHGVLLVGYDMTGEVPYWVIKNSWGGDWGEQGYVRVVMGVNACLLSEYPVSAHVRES
Test Method Notes: Leishmania mexicana cysteine protease B (CPB) peptidase activity assay (Ki)
Format: biochemical
Condition Summary: Ki, inhibitors of Leismania mexicana CPB protease
pKi: −log10 of the molar value.

Compound: CC(C)C[C@H](NC(=O)c1ccc(N(C)C)cc1)C(=O)N1CC[C@@H]2[C@H]1C(=O)CN2C(=O)c1cc2ccccc2o1
pKi: > 5.30

Compound: CC(C)C[C@H](NC(=O)c1ccc(N(C)C)cc1)C(=O)N1CC[C@@H]2[C@H]1C(=O)CN2C(=O)c1cccc(C(F)(F)F)c1
pKi: > 5.30

Compound: CC(C)C[C@H](NC(=O)c1ccc(N)cc1)C(=O)N1NC[C@@H]2[C@H]1C(=O)CN2C(=O)c1cccc(S(C)(=O)=O)c1 [Example 249c]
pKi: > 5.30
